System: LIMK2
Conditions: concentration: 1 μM, replicates: in singlicate; n = 1;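 further: KINOMEscan kinase panel screen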
Listing of recorded %Inh by entry.
Answer in %, number only, no unit symbol.

Below are worked cases with known answers.
COc1ccc(C2=C(Nc3cccc(O)c3)C(=O)NC2=O)cc1; 10
Cc1cc(-c2c(-c3ccc(F)cc3)ncn2CCCN2CCOCC2)nc(N)n1; 0
CCNc1nccc(-c2c(-c3ccc(F)cc3)ncn2C2CCN(C)CC2)n1; 7
CC(C)(C)c1ccc(C(=O)Nc2cn3cc(-n4ccnc4)ccc3n2)cc1; 10
COc1cc(Nc2nccc(N3CCC(NC(=O)Nc4ccc5c(c4)OCO5)C3)n2)cc(OC)c1OC (stereo not shown); 13
Cn1cc(-c2ccc3c(c2)CCN3C(=O)Cc2cc(F)cc(F)c2F)c2c(N)ncnc21; 0

Lab note: next compound to report on.
Problem: Which %Inh value is on record for CN(C)c1ncnc2nc[nH]c12 ?
Result: 0

###

System: NIM1
Construct: gene MGC42105
Conditions: concentration: 1 μM, replicates: in singlicate; n = 1
Listing of recorded %Inh by entry.
Answer in %, number only, no unit symbol.

Problem: Fill in the recorded %Inh for this compound, with NIM1 as test system: Cc1ccc(C)c(NC(=O)Nc2ccc(C)c(-c3ccc(C(=O)Nc4ccncc4)cc3)c2)c1
Result: 1

###

Tested on: MYO3A
Conditions: concentration: 1 μM, replicates: in singlicate; n = 1
value type: %Inh
Phrase the answer as number then unit, nothing more needed.

Below are worked cases with known answers.
Cl.Cl.NCC(NC(=O)c1cc(-c2cccnc2)c(-c2ccnc3[nH]ccc23)s1)c1ccccc1 (stereo not shown); 39%
Cc1ccc(Nc2ccnc(Nc3ccc(C)c(F)c3)n2)cc1O.Cl; 2%
Cc1cccc(Nc2nc(NCCN)ncc2C(N)=O)c1; 5%

Lab note: next compound to report on.
Problem: Which %Inh value is on record for Cc1cc(-c2ccnc(Nc3cccc(C#N)c3)n2)cc(C)c1O ?
Result: 0%

###

System: TBK1
Details: concentration: 1 μM, replicates: in singlicate; n = 1
Threshold check on %Inh: strictly below 8% is condition met; on or above 8% is condition not met.

Here are 5 compounds together with their reported answers.
Fc1cc(Cl)ccc1Nc1ccnc2cc(-c3ccc(CN4CCOCC4)o3)ccc12; condition met
CC(C)c1nc(-c2cccc(NS(=O)(=O)c3c(F)cccc3F)c2)c(-c2ccnc(Nc3ccc(N4CCOCC4)nc3)n2)s1.Cl; condition not met
Nc1ncc(-c2ccc3nccc(-c4ccncc4)c3c2)cc1S(=O)(=O)N1CCCCC1; condition met
CC(C)c1nc(-c2ccc(F)c(NS(=O)(=O)c3c(F)cccc3F)c2)c(-c2ccnc(Nc3ccc(N4CCOCC4)nc3)n2)s1; condition met
Cn1cc(-c2ccc3c(c2)CCN3C(=O)Cc2cc(F)cc(F)c2F)c2c(N)ncnc21; condition not met

Problem: Just wondering, is %Inh of CCNC(=O)/C=C/c1n[nH]c2cc(Sc3ccccc3C(=O)NC)ccc12 below 8%?
Result: condition not met

Problem: Just wondering, is %Inh of Cl.Cl.NCC(NC(=O)c1cc(-c2cccnc2)c(-c2ccnc3[nH]ccc23)s1)c1ccccc1 (centres unmarked) below 8%?
Result: condition met

Problem: Just wondering, is %Inh of Cc1ccc(O)cc1Nc1ccnc2ccc(C(C)(C)C)cc12 below 8%?
Result: condition not met
